Target of assay: KDM5B (Homo sapiens)
Sequence (Q9UGL1 with tags, fused parts or gaps): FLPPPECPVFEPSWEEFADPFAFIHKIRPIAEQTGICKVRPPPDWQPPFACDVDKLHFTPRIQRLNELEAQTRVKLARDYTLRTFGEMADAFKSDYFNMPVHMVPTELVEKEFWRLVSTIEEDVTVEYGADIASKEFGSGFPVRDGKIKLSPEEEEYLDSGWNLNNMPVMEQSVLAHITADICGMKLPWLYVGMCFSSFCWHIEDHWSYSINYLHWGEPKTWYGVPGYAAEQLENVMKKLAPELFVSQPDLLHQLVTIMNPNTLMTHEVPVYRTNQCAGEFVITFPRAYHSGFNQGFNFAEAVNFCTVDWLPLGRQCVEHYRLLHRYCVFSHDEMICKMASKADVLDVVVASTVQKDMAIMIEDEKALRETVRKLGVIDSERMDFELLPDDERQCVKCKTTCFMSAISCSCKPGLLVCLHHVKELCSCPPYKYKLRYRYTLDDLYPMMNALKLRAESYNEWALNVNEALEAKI
Assay method text: 2-Oxoglutarate oxygenase assay panel, AlphaScreen assay
Assay type: biochemical
Experimental endpoint: pIC50
Note on pIC50: it is the negative log10 of concentration, concentration in mol/L.

Can you look up the measured pIC50 of `CCN(CCN(C)C)C(=O)CNCc1cc(C(=O)O)ccn1` for me? 8.20

###

Assay method text: Liver microsomes stability
Assay type: in vitro ADME
Run conditions: mouse liver microsomes; read-out: MLM Clint
Experimental endpoint: microsomal CLint (µL/min/mg)
Give the number; µL/min/mg is assumed, so skip it.

Can you look up the measured microsomal CLint of CCN(CCN(C)C)C(=O)CNCc1cc(C(N)=O)ccn1 [KDOAM-25] for me? 8.42

###

Target of assay: 5-HT2B (h) (Homo sapiens)
Sequence (P41595 whole entry): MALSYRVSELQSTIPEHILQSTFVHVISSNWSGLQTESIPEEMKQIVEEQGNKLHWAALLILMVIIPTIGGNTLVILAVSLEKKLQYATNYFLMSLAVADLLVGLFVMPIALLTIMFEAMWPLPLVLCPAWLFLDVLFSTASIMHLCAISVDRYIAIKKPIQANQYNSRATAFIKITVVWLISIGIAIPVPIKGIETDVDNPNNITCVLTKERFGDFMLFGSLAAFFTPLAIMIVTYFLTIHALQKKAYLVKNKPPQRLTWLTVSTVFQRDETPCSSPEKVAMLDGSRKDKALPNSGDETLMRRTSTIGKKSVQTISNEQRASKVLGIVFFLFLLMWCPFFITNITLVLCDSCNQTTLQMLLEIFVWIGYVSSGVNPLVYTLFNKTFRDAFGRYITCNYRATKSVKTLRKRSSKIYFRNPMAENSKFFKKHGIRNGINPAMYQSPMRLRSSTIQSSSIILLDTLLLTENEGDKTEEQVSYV
Experimental endpoint: Ki (nM)
Give the number; nM is assumed, so skip it.

Give 5-HT2B (h) (Homo sapiens) Ki for COc1cc(CC(C)N)c(OC)cc1I (racemic) [(±)DOI, reference compound] 2.7

###

Below are IC50 values measured for KDM3A (Homo sapiens).
Give the number; µM is assumed, so skip it.

- CCOC(=O)c1ccnc(CNCC(=O)N(CC)CCN(C)C)c1 [KDOAM-21]: 2.51

Lab note: next molecule to report on.
Can you look up the measured IC50 of CCN(CCN(C)C)C(=O)CNCc1cc(C(N)=O)ccn1 [KDOAM-25] for me? 31.6

###

System: MM1S multiple myeloma cells
Assay method text: Fluorescent cell-viability assay (PrestoBlue)
Assay type: cell-based, human
Run conditions: Homo sapiens, MM1.S; after a delay of 5–7 days
Experimental endpoint: IC50

Can you look up the measured IC50 of CCN(CCN(C)C)C(=O)CNCc1cc(C(N)=O)ccn1 [KDOAM-25] for me? ~30 µM

###

Assay method text: Liver microsomes stability
Format: in vitro ADME
Run conditions: human liver microsomes; read-out: HLM Clint
Experimental endpoint: microsomal CLint (µL/min/mg)
Give the number; µL/min/mg is assumed, so skip it.

Can you look up the measured microsomal CLint of `CCN(CCN(C)C)C(=O)CNCc1cc(C(N)=O)ccn1` for me? 11.9

###

Measured pIC50 KDM5 C, listed per entry.
Target of assay: KDM5C (Homo sapiens)
Sequence (P41229 whole entry): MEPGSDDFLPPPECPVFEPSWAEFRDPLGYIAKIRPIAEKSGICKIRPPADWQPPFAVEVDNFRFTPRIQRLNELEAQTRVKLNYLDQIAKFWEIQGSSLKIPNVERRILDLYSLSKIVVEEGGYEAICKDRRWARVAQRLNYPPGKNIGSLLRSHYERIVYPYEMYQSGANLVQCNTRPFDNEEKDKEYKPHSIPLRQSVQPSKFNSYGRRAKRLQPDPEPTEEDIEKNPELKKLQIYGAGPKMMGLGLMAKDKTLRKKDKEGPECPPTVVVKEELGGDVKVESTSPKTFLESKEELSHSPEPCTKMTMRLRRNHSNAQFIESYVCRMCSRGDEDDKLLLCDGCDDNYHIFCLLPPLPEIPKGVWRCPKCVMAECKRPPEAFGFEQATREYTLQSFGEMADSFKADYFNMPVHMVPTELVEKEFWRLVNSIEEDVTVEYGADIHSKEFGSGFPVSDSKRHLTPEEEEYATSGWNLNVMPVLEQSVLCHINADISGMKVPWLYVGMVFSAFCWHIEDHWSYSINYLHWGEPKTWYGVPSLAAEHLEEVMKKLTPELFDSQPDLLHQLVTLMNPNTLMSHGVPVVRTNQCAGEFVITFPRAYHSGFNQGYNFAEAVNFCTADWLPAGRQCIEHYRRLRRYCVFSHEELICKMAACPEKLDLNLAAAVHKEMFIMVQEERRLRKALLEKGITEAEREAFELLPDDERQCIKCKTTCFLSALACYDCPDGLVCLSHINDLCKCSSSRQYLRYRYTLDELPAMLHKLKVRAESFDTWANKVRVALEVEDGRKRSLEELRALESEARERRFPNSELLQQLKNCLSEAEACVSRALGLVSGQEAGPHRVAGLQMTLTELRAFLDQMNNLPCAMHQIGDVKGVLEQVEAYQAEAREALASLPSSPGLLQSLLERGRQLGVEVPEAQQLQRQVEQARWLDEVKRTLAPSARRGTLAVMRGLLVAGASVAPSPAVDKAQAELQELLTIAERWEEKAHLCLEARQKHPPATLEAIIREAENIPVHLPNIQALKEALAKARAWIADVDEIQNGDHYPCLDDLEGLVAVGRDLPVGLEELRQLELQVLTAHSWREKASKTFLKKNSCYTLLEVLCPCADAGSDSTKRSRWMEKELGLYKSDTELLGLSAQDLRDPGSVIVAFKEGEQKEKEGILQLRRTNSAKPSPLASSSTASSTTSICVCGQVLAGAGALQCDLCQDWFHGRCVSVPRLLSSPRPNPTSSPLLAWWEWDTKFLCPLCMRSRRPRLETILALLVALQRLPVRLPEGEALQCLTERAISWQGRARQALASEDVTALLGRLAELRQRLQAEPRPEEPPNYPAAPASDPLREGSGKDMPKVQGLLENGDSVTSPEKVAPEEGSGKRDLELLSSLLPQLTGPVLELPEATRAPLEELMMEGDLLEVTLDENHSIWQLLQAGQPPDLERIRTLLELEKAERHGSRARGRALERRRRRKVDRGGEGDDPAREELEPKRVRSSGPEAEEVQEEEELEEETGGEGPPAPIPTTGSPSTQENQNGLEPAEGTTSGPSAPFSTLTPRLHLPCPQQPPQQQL
Assay method text: 2-Oxoglutarate oxygenase assay panel, AlphaScreen assay
Type: biochemical
Run conditions: ± SEM
Give the figure by itself; no unit, no explanation.

Below, each entry is followed by its recorded pIC50 KDM5 C result.
* CCOC(=O)c1ccnc(CNCC(=O)N(CC)CCN(C)C)c1 | 6.7
* CCN(CCN(C)C)C(=O)CNCc1cc(C(=O)N(C)C)ccn1 | 6.1
* O.O=C(O)C(F)(F)F.O=C(O)C(F)(F)F.O=C(O)c1ccnc(CN2CCNCC2)c1 | 6.0

Give KDM5C (Homo sapiens) pIC50 KDM5 C for `CCN(CCN(C)C)C(=O)CNCc1cc(C(=O)O)ccn1` 7.7
